Test target: human Lymphocyte-cell Factor Kinase (Lck), LCK (gene 3932) (UniProt P06239)
Sequence (P06239 whole entry, looked up): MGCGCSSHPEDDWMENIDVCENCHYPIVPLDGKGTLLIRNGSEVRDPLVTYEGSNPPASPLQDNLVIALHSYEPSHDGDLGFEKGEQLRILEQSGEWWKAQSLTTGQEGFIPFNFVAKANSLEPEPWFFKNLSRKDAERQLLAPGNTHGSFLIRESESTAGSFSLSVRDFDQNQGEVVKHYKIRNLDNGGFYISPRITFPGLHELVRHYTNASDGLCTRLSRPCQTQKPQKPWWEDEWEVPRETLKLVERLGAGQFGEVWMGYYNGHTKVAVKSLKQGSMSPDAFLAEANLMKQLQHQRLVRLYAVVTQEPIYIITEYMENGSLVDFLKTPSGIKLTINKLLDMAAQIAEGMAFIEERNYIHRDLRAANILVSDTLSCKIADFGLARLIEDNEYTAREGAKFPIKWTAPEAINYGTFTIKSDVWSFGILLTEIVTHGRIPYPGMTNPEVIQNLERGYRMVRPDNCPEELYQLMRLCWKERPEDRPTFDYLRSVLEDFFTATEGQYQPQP
Experimental details: NVS_ENZ_hLck: NovaScreen (NVS) Enzymatic Assay for human Lymphocyte-cell Factor Kinase (Lck)
Records with an inconclusive call do not appear. Calls of active or inactive are those of the source. The calls were made as follows: active = hit-call score of the fitted dose curve at least 0.9, where 1 is the maximum; inconclusive = response in the unintended direction; inactive = score below 0.9.
Outcomes: 1 for active, -1 for inactive

Molecule	Assigned category
O=C(O)C(F)(F)C(F)(F)C(F)(F)C(F)(F)C(F)(F)C(F)(F)C(F)(F)F	-1
S=C1NCCN1	-1
Cc1cnc(C2=NC(C)(C(C)C)C(=O)N2)c(C(=O)O)c1 (configuration not stated)	-1
CC[C@H](C)[C@H]1O[C@]2(C=C[C@@H]1C)C[C@@H]1C[C@@H](C/C=C(\C)[C@@H](O[C@H]3C[C@H](OC)[C@@H](O[C@H]4C[C@H](OC)[C@@H](NC)[C@H](C)O4)[C@H](C)O3)[C@@H](C)/C=C/C=C3\CO[C@@H]4[C@H](O)C(C)=C[C@@H](C(=O)O1)[C@]34O)O2	1
C=CCC1=C(C)[C@@H](OC(=O)[C@@H]2[C@@H](C=C(C)C)C2(C)C)CC1=O	-1
CNC(=S)S	-1
O=C(Nc1ccccc1)Nc1cnns1	-1
